Target: T1, HCoV-229E spike antigens (bead panel) (HCoV-229E, UniProt P15423 16-1115)
T1 sequence: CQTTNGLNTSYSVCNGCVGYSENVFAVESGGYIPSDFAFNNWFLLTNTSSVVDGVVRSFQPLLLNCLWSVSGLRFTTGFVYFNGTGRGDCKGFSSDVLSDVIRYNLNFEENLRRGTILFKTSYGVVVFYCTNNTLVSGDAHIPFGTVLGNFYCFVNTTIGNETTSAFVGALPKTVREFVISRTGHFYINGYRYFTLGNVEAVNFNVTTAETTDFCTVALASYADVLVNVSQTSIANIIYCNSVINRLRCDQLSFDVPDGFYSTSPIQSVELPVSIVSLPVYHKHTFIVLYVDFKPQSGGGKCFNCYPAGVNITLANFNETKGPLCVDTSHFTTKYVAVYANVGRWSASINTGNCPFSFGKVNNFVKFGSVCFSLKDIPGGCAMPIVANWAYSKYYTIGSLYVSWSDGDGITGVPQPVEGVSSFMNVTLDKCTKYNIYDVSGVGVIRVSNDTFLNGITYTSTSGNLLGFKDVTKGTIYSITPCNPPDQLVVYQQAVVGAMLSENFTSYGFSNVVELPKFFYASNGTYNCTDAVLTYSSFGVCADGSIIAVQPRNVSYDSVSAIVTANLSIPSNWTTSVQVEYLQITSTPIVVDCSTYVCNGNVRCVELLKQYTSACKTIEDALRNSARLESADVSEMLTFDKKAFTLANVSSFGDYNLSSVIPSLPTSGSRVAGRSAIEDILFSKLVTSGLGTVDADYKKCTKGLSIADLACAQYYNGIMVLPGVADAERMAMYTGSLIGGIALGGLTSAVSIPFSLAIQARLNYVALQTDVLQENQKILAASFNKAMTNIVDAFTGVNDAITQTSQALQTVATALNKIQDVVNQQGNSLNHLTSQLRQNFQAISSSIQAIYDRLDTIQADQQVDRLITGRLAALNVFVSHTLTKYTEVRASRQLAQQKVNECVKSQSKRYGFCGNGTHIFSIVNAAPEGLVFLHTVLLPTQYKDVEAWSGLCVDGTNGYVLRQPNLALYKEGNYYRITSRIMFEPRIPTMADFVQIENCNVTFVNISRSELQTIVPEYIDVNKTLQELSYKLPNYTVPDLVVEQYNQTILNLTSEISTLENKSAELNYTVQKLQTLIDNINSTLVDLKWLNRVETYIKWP
Test: multiplex bead assay
reported.metric: binding result

1. COV_3088 (antibody, V domains shown, human IgG1) VH: EVQLVESGGGLVQPGGSLRLSCAASGFTFSSYDMHWVRQATGKGLEWVSAIGTAGDTYYPGSVKGRFTISRENAKNSLYLQMNSLRAGDTAVYYCARGSGWPPFFDYWGQGTLVTVSS VL: SYELTQPPSVSVAPGKTARITCGGNNIGSKSVHWYQQKPGQAPVLVIYYDSDRPSGIPERFSGSNSGNTATLTISRVEAGDEADYYCQVWDSSSDHHWVFGGGTKLTVL ... no binding
2. COV_2143 (antibody, V domains shown, human IgG1) VH: EVQLVESGGGVVQPGRSLRLSCAASGFTFNSFAMLWVRQAPGKGLEWVALFSYDGSNKYYADSVKGRFTISRDNSKNTLYLQMNNLRAVDTAVYYCARASPYDINGYYLHRIAFDIWGQGTMVTVSS VL: QSVLMQPPSVSGAPGQRVTISCTGSSSNIGAGYDVHWYQQLPGTAPKLLMYGNSNRPSGVPDRFSGSKSGTSASLAITGLQAEDEADYYCQSYDSGLSGWVFGGGTKLTVLG ... no binding
3. COV_2028 (antibody, V domains shown, human IgG1) VH: QVQLQESGPGLVKPSGTLSLTCVVSGGSISSSNWWSWVRQPPGKGLEWIGEIYHSGSTNYNPSLKSRVTISVDKSKNQFSLRLTSVTAADTAVYYCARGWNYDYWGQGTLVTVSS VL: QSALTQPASVSGSPGQSITIACTGTSSDVGSYNLVSWYQQHPGKAPKLMIYEVSKRPSGLSNRFSGSKSGNTASLTISGLQAEDEADYYCYSYAGSSTWVFGGGTKLTVL ... no binding
